# target system: SARS-COV-2 RBD extracellular domain expressed with a C-terminal mouse IgG2a Fc (SARS-CoV-2)
# assay: Biacore SPR, mAb captured on anti-hFc, 37 C
assay readout: koff (s⁻¹)

[[record]]
binder = "mAb15160 (antibody, V domains shown) VH: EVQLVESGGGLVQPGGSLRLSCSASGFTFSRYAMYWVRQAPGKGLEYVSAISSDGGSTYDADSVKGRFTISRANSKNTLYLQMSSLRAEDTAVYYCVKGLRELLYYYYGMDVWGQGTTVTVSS VL: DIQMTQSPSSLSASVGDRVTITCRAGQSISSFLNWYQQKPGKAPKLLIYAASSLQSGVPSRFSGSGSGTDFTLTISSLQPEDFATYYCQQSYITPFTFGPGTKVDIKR"
assay_readout = "koff"
assay_result = "7.9e-05"

[[record]]
binder = "mAb15159 (antibody, V domains shown) VH: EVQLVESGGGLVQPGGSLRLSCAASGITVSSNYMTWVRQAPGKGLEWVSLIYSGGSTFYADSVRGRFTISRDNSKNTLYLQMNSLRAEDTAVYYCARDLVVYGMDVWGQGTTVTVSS VL: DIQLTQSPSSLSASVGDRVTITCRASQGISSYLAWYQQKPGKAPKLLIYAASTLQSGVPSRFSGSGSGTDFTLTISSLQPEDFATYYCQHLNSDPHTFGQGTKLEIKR"
assay_readout = "koff"
assay_result = "2.99e-05"

[[record]]
binder = "mAb14234 (antibody, V domains shown) VH: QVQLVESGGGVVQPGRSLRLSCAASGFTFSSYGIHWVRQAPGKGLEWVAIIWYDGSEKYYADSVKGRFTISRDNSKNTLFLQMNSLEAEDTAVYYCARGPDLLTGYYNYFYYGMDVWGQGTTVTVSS VL: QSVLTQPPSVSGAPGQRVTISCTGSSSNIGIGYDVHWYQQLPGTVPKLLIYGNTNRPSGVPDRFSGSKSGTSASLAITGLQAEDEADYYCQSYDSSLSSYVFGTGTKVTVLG"
assay_readout = "koff"
assay_result = 0.000402

[[record]]
binder = "mAb15165 (antibody, V domains shown) VH: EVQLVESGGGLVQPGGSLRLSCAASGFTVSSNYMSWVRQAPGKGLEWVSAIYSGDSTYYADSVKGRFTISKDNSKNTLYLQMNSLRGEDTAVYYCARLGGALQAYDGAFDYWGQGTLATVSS VL: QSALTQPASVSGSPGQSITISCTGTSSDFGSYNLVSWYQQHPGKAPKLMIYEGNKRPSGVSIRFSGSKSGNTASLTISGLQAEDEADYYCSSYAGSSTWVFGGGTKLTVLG"
assay_readout = "koff"
assay_result = "4.55e-05"

[[record]]
binder = "mAb14294 (antibody, V domains shown) VH: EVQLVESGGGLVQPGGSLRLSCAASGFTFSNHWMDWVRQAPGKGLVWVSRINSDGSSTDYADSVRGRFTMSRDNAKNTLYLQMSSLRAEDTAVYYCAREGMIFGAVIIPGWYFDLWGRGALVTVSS VL: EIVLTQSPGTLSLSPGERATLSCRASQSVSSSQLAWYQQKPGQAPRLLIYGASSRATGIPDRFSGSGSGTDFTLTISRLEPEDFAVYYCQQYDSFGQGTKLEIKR"
assay_readout = "koff"
assay_result = "3.5e-05"

[[record]]
binder = "mAb14312 (antibody, V domains shown) VH: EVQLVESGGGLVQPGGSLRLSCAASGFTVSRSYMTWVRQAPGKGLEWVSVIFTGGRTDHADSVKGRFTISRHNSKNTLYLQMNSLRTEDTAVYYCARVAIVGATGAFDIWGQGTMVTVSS VL: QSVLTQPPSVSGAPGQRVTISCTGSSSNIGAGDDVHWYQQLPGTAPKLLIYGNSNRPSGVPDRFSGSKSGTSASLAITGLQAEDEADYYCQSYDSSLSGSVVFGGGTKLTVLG"
assay_readout = "koff"
assay_result = "5.8e-05"

[[record]]
binder = "mAb14284 (antibody, V domains shown) VH: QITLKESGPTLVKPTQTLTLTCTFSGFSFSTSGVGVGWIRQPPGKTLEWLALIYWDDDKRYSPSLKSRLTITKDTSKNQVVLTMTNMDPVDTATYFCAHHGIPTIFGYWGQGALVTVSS VL: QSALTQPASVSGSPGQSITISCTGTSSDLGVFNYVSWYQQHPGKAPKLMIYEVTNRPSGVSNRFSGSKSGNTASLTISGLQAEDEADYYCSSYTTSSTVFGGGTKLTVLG"
assay_readout = "koff"
assay_result = "2.24e-05"

[[record]]
binder = "mAb14257 (antibody, V domains shown) VH: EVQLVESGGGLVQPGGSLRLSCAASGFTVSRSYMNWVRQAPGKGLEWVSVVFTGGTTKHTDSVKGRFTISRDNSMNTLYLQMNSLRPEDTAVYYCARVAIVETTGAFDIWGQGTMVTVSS VL: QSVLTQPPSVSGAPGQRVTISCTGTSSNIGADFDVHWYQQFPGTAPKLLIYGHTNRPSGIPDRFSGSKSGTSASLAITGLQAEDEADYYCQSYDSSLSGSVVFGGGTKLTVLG"
assay_readout = "koff"
assay_result = 0.000339

[[record]]
binder = "mAb13458 (antibody, V domains shown) VH: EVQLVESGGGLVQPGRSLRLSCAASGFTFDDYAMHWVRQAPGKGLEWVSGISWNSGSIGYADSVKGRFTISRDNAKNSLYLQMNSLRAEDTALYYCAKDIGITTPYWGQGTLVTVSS VL: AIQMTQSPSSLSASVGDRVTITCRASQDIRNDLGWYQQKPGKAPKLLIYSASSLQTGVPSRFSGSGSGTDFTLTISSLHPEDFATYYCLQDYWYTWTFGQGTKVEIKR"
assay_readout = "koff"
assay_result = "9.12e-05"

[[record]]
binder = "mAb14280 (antibody, V domains shown) VH: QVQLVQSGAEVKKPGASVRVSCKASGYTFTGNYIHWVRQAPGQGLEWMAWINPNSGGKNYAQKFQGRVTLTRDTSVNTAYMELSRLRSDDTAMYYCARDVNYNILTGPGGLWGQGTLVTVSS VL: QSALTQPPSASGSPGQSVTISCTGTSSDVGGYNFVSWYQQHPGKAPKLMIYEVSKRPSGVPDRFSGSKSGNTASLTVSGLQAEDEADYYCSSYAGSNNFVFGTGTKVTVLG"
assay_readout = "koff"
assay_result = 0.000772

